# System: Pseudomonas aeruginosa
# ASSAY PROCEDURE: Antibacterial activity against Pseudomonas aeruginosa ATCC 10145 after 24 hr by broth microdilution method
# Type: functional
# CONDITION CONTEXT: ATCC 10145, 24 h
PARAMETER MEASURED: MIC

Q: Name the recorded MIC for `CC(C)c1csc(-c2nnc(S(=O)(=O)Cc3ccccc3)n2/N=C/c2c(F)cccc2F)n1` .
A: 4 µg/mL

Q: Name the recorded MIC for `O=C(O)c1cn(C2CC2)c2cc(N3CCNCC3)c(F)cc2c1=O` .
A: ≤ 5 µg/mL

Q: Name the recorded MIC for `CC(C)c1csc(-c2nnc(S(=O)(=O)Cc3ccc(C(F)(F)F)cc3)n2/N=C/c2c(F)cccc2F)n1` .
A: 8 µg/mL

Q: Name the recorded MIC for `CC(C)c1csc(-c2nnc(S(=O)(=O)Cc3cc(Cl)ccc3F)n2-c2ccccc2)n1` .
A: 8 µg/mL

Q: Name the recorded MIC for `CC(C)c1csc(-c2nnc(S(=O)(=O)Cc3ccc(Cl)cc3)n2/N=C/c2ccc(F)cc2)n1` .
A: 16 µg/mL

Q: Name the recorded MIC for `CC(C)c1csc(-c2nnc(S(=O)(=O)Cc3ccc(C(F)(F)F)cc3)n2/N=C/c2ccc(Cl)cc2)n1` .
A: 4 µg/mL

Q: Name the recorded MIC for `CC(C)c1csc(-c2nnc(S(=O)(=O)Cc3ccc(C(F)(F)F)cc3)n2/N=C/c2ccc(F)cc2)n1` .
A: 8 µg/mL

Q: Name the recorded MIC for `CC(C)c1csc(-c2nnc(S(=O)(=O)Cc3ccc(Br)cc3F)n2-c2ccccc2)n1` .
A: 16 µg/mL

Q: Name the recorded MIC for `CC(C)c1csc(-c2nnc(S(=O)(=O)Cc3ccc(Cl)cc3)n2/N=C/c2ccc(Cl)cc2)n1` .
A: 8 µg/mL

Q: Name the recorded MIC for `CC(C)c1csc(-c2nnc(S(=O)(=O)Cc3cc(Cl)ccc3F)o2)n1` .
A: 4 µg/mL

Q: Name the recorded MIC for `CC(C)c1csc(-c2nnc(S(=O)(=O)Cc3ccc(Br)cc3)n2/N=C/c2ccc(F)cc2)n1` .
A: 62.5 µg/mL

Q: Name the recorded MIC for `CC(C)c1csc(-c2nnc(S(=O)(=O)Cc3ccc(Br)cc3)o2)n1` .
A: 8 µg/mL

Q: Name the recorded MIC for `CC(C)c1csc(-c2nnc(S(=O)(=O)Cc3ccc(Br)cc3F)n2/N=C/c2ccc(F)cc2)n1` .
A: 62.5 µg/mL

Q: Name the recorded MIC for `CC(C)c1csc(-c2nnc(S(=O)(=O)Cc3ccccc3C(F)(F)F)o2)n1` .
A: 4 µg/mL

Q: Name the recorded MIC for `CC(C)c1csc(-c2nnc(S(=O)(=O)Cc3ccc(Br)cc3F)n2/N=C/c2c(F)cccc2F)n1` .
A: 8 µg/mL

Q: Name the recorded MIC for `CC(C)c1csc(-c2nnc(S(=O)(=O)Cc3ccccc3)o2)n1` .
A: 8 µg/mL

Q: Name the recorded MIC for `CC(C)c1csc(-c2nnc(S(=O)(=O)Cc3ccc(Cl)cc3)o2)n1` .
A: 8 µg/mL

Q: Name the recorded MIC for `CC(C)c1csc(-c2nnc(S(=O)(=O)Cc3ccc(Cl)cc3)n2/N=C/c2c(F)cccc2F)n1` .
A: 62.5 µg/mL

Q: Name the recorded MIC for `CC(C)c1csc(-c2nnc(S(=O)(=O)Cc3ccc(C(F)(F)F)cc3)n2-c2ccccc2)n1` .
A: 16 µg/mL

Q: Name the recorded MIC for `CCn1cc(C(=O)O)c(=O)c2cc(F)c(N3CCNCC3)cc21` .
A: ≤ 5 µg/mL

Q: Name the recorded MIC for `CC(C)c1csc(-c2nnc(S(=O)(=O)Cc3ccc(Br)cc3F)n2/N=C/c2ccc(Cl)cc2)n1` .
A: 16 µg/mL

Q: Name the recorded MIC for `CC(C)c1csc(-c2nnc(S(=O)(=O)Cc3ccc(Br)cc3)n2/N=C/c2c(F)cccc2F)n1` .
A: 8 µg/mL

Q: Name the recorded MIC for `CC(C)c1csc(-c2nnc(S(=O)(=O)Cc3ccc(Br)cc3)n2-c2ccccc2)n1` .
A: 8 µg/mL

Q: Name the recorded MIC for `CC(C)c1csc(-c2nnc(S(=O)(=O)Cc3ccc(OC(F)(F)F)cc3)n2-c2ccccc2)n1` .
A: 8 µg/mL

---

# Tested on: Bacillus subtilis
# ASSAY PROCEDURE: Antibacterial activity against Bacillus subtilis ATCC 60511 after 24 hr by broth microdilution method
# Type: functional
# CONDITION CONTEXT: ATCC 60511, 24 h
Provide the reported MIC of each item.
Give the value, in units of µg/mL, as a plain number.

Q: Name the recorded MIC for `CC(C)c1csc(-c2nnc(S(=O)(=O)Cc3ccc(C(F)(F)F)cc3)n2/N=C/c2ccc(Cl)cc2)n1` .
A: 4

Q: Name the recorded MIC for `CC(C)c1csc(-c2nnc(S(=O)(=O)Cc3ccc(C(F)(F)F)cc3)n2/N=C/c2c(F)cccc2F)n1` .
A: 8

Q: Name the recorded MIC for `CC(C)c1csc(-c2nnc(S(=O)(=O)Cc3ccc(Br)cc3F)n2/N=C/c2ccc(F)cc2)n1` .
A: 31.2

Q: Name the recorded MIC for `CC(C)c1csc(-c2nnc(S(=O)(=O)Cc3cc(Cl)ccc3F)n2-c2ccccc2)n1` .
A: 31.2

Q: Name the recorded MIC for `CC(C)c1csc(-c2nnc(S(=O)(=O)Cc3ccc(Cl)cc3)n2/N=C/c2ccc(Cl)cc2)n1` .
A: 31.2

Q: Name the recorded MIC for `CC(C)c1csc(-c2nnc(S(=O)(=O)Cc3ccc(C(F)(F)F)cc3)n2/N=C/c2ccc(F)cc2)n1` .
A: 8

Q: Name the recorded MIC for `CC(C)c1csc(-c2nnc(S(=O)(=O)Cc3cc(Cl)ccc3F)o2)n1` .
A: 8

Q: Name the recorded MIC for `CC(C)c1csc(-c2nnc(S(=O)(=O)Cc3ccc(Br)cc3F)n2/N=C/c2c(F)cccc2F)n1` .
A: 16

---

Provide the reported MIC of each item.
# Tested on: Bacillus subtilis
# ASSAY PROCEDURE: Antibacterial activity against Bacillus subtilis ATCC 60511 after 24 hr by broth microdilution method
# Type: functional
# CONDITION CONTEXT: ATCC 60511, 24 h
Give the value, in units of µg/mL, as a plain number.

Q: Name the recorded MIC for `CC(C)c1csc(-c2nnc(S(=O)(=O)Cc3ccc(Br)cc3F)n2/N=C/c2ccc(Cl)cc2)n1` .
A: 8

Q: Name the recorded MIC for `CC(C)c1csc(-c2nnc(S(=O)(=O)Cc3ccc(Br)cc3)n2-c2ccccc2)n1` .
A: 16

Q: Name the recorded MIC for `CC(C)c1csc(-c2nnc(S(=O)(=O)Cc3ccc(Br)cc3)n2/N=C/c2c(F)cccc2F)n1` .
A: 16

Q: Name the recorded MIC for `CC(C)c1csc(-c2nnc(S(=O)(=O)Cc3ccccc3)o2)n1` .
A: 31.2

Q: Name the recorded MIC for `CC(C)c1csc(-c2nnc(S(=O)(=O)Cc3ccc(OC(F)(F)F)cc3)n2-c2ccccc2)n1` .
A: 8

---

# Tested on: Bacillus subtilis
# ASSAY PROCEDURE: Antibacterial activity against Bacillus subtilis ATCC 60511 after 24 hr by broth microdilution method
# Type: functional
# CONDITION CONTEXT: ATCC 60511, 24 h
PARAMETER MEASURED: MIC (µg/mL)
Give the value, in units of µg/mL, as a plain number.

Q: Name the recorded MIC for `CC(C)c1csc(-c2nnc(S(=O)(=O)Cc3ccc(C(F)(F)F)cc3)n2-c2ccccc2)n1` .
A: 8

Q: Name the recorded MIC for `CC(C)c1csc(-c2nnc(S(=O)(=O)Cc3ccc(Cl)cc3)n2/N=C/c2ccc(F)cc2)n1` .
A: 4

Q: Name the recorded MIC for `CC(C)c1csc(-c2nnc(S(=O)(=O)Cc3ccc(Cl)cc3)o2)n1` .
A: 8

Q: Name the recorded MIC for `CC(C)c1csc(-c2nnc(S(=O)(=O)Cc3ccc(Br)cc3)n2/N=C/c2ccc(F)cc2)n1` .
A: 8

Q: Name the recorded MIC for `CC(C)c1csc(-c2nnc(S(=O)(=O)Cc3ccc(Br)cc3F)n2-c2ccccc2)n1` .
A: 16

Q: Name the recorded MIC for `CC(C)c1csc(-c2nnc(S(=O)(=O)Cc3ccccc3)n2/N=C/c2c(F)cccc2F)n1` .
A: 62.5

Q: Name the recorded MIC for `CC(C)c1csc(-c2nnc(S(=O)(=O)Cc3ccc(Cl)cc3)n2/N=C/c2c(F)cccc2F)n1` .
A: 8

Q: Name the recorded MIC for `CC(C)c1csc(-c2nnc(S(=O)(=O)Cc3ccc(Br)cc3)o2)n1` .
A: 31.2

Q: Name the recorded MIC for `CC(C)c1csc(-c2nnc(S(=O)(=O)Cc3ccccc3C(F)(F)F)o2)n1` .
A: 31.2
